Tested on: S. aureus VISA/HIP5827
Test: MIC, broth microdilution, vancomycin-intermediate S. aureus VISA HIP5827
Type: cell-based, Staphylococcus aureus
Conditions: Staphylococcus aureus VISA/HIP5827; read-out: MIC
Experimental: The minimum inhibitory concentration (MIC) was determined using the broth microdilution method according to the antimicrobial susceptibility testing standards of the clinical and laboratory standards institute ([Clinical and Laboratory Standards Institute [CLSI], 2012]). Ultrapure water and non-inoculated broth were used as controls. In one case, a final concentration of 10 μM vancomycin was included with the vancomycin analog or control antibiotic.
measurement_kind: MIC

• CNC(CC(C)C)C(=O)NC1C(=O)NC(CC(N)=O)C(=O)NC2C(=O)NC3C(=O)NC(C(=O)NC(C(=O)NCC(=O)Nc4ccc(C(=O)NCCCN(C)C)cc4)c4cc(O)cc(O)c4-c4cc3ccc4O)C(O)c3ccc(c(Cl)c3)Oc3cc2cc(c3OC2OC(CO)C(O)C(O)C2OC2CC(C)(N)C(O)C(C)O2)Oc2ccc(cc2Cl)C1O (centres unmarked) = >12.5 µM
• CN[C@H](CC(C)C)C(=O)N[C@H]1C(=O)N[C@@H](CC(N)=O)C(=O)N[C@H]2C(=O)N[C@H]3C(=O)N[C@H](C(=O)N[C@H](C(=O)NCC(=O)Nc4ccc([N+](=O)[O-])cc4)c4cc(O)cc(O)c4-c4cc3ccc4O)[C@H](O)c3ccc(c(Cl)c3)Oc3cc2cc(c3O[C@@H]2O[C@H](CO)[C@@H](O)[C@H](O)[C@H]2O[C@H]2C[C@](C)(N)[C@H](O)[C@H](C)O2)Oc2ccc(cc2Cl)[C@H]1O = 1.56 µM
• CN[C@H](CC(C)C)C(=O)N[C@H]1C(=O)N[C@@H](CC(N)=O)C(=O)N[C@H]2C(=O)N[C@H]3C(=O)N[C@H](C(=O)N[C@H](C(=O)NCC(=O)Nc4cc(C)cc(C)c4)c4cc(O)cc(O)c4-c4cc3ccc4O)[C@H](O)c3ccc(c(Cl)c3)Oc3cc2cc(c3O[C@@H]2O[C@H](CO)[C@@H](O)[C@H](O)[C@H]2O[C@H]2C[C@](C)(N)[C@H](O)[C@H](C)O2)Oc2ccc(cc2Cl)[C@H]1O = 0.78 µM
• CCCCCc1ccc(NC(=O)CNC(=O)[C@H]2NC(=O)[C@H]3NC(=O)[C@H](NC(=O)[C@@H]4NC(=O)[C@H](CC(N)=O)NC(=O)[C@H](NC(=O)[C@@H](CC(C)C)NC)[C@H](O)c5ccc(c(Cl)c5)Oc5cc4cc(c5O[C@@H]4O[C@H](CO)[C@@H](O)[C@H](O)[C@H]4O[C@H]4C[C@](C)(N)[C@H](O)[C@H](C)O4)Oc4ccc(cc4Cl)[C@H]3O)c3ccc(O)c(c3)-c3c(O)cc(O)cc32)cc1 = 0.78 µM
• CN[C@H](CC(C)C)C(=O)N[C@H]1C(=O)N[C@@H](CC(N)=O)C(=O)N[C@H]2C(=O)N[C@H]3C(=O)N[C@H](C(=O)N[C@H](C(=O)NCC(=O)Nc4ccc(Cl)cn4)c4cc(O)cc(O)c4-c4cc3ccc4O)[C@H](O)c3ccc(c(Cl)c3)Oc3cc2cc(c3O[C@@H]2O[C@H](CO)[C@@H](O)[C@H](O)[C@H]2O[C@H]2C[C@](C)(N)[C@H](O)[C@H](C)O2)Oc2ccc(cc2Cl)[C@H]1O = 1.56 µM
